Every entry's value here was drawn from patent US6436918B1.

- target: recombinant human estrone sulfatase (Homo sapiens, UniProt P08842)
- Construct: made in house; host or cells: Chinese Hamster Ovary (CHO) cells
- Sequence (P08842 22-583): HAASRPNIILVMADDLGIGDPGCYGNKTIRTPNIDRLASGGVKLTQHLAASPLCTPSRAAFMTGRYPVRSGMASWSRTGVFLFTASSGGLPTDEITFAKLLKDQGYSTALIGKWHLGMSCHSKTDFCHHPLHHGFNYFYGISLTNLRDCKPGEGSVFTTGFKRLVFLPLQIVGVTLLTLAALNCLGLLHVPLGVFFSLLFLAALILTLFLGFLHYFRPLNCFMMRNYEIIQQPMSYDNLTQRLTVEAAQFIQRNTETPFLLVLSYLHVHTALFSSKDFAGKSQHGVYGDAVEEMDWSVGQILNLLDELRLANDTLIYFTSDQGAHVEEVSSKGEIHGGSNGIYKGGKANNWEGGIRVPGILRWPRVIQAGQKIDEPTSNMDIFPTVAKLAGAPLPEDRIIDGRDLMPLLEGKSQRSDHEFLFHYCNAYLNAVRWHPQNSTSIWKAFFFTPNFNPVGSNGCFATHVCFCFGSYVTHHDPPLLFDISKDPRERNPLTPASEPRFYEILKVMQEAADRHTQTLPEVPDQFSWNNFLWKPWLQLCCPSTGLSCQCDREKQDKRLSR
- method.summary: in vitro conversion assay: inhibition of conversion of 3H-estrone sulfate to 3H-estrone by estrone sulfatase
- Assay type: biochemical
result.type: IC50 (nM)
Respond numerically; units are nM and should not be typed.

CCCN(C)C(=O)[C@H]1CC[C@H]2[C@@H]3CCc4cc(OS(N)(=O)=O)ccc4[C@H]3CC[C@]12C [Compound 29m] | 5.5

Now for another entry.
Problem: GET IC50 | system: recombinant human estrone sulfatase (Homo sapiens, UniProt P08842) | item: CC(C)CNC(=O)[C@H]1CC[C@H]2[C@@H]3CCc4cc(OS(N)(=O)=O)ccc4[C@H]3CC[C@]12C [Compound 29d]
Solution: 6.5
